- Tested on: Danio rerio larvae (5 dpf)
- PROCEDURE DETAILS: startle response to 20-s acoustic pulses, difference vs DMSO (percentage points (treated minus DMSO)); higher = more of the behaviour than the DMSO vehicle control
- EXPERIMENTAL CONDITIONS: 10 µM; exposure time: 3 h pre-incubation + 3 h imaging
Structures can show the parent of a compound that is named as a salt.
OBSERVABLE: startle response to 20-s acoustic pulses

> print(dat)
                                   compound                                observable  value.observed
1  CCCc1nn(C)c2c(=O)[nH]c(-c3cc(S(=O)(=O)N4CCN(C)CC4)ccc3OCC)nc12 [Sildenafil citrate]  startle response to 20-s acoustic pulses            0.54
2  OCc1cc(C(O)CNCCCCCCOCCCCc2ccccc2)ccc1O (centres undefined) [Salmeterol xinafoate]  startle response to 20-s acoustic pulses           -5.23
3  COc1c(C)c2c(c(O)c1C/C=C(\C)CCC(=O)OCCN1CCOCC1)C(=O)OC2 [Mycophenolate mofetil]  startle response to 20-s acoustic pulses            3.73
4   CCOC(=O)c1ncn2c1CN(C)C(=O)c1cc(F)ccc1-2  startle response to 20-s acoustic pulses           -1.57

---

Listed here: items and their measured optomotor response to blue moving lines.
- System: Danio rerio larvae (5 dpf)
- PROCEDURE DETAILS: optomotor response to blue moving lines, difference vs DMSO (percentage points (treated minus DMSO)); higher = more of the behaviour than the DMSO vehicle control
- EXPERIMENTAL CONDITIONS: 10 µM; exposure time: 3 h pre-incubation + 3 h imaging
Structures can show the parent of a compound that is named as a salt.
OBSERVABLE: optomotor response to blue moving lines

> print(dat)
                                   molecule  value.observed
1  O=c1n(CCCN2CCN(c3cccc(Cl)c3)CC2)nc2ccccn12 [Trazodone hydrochloride]            6.49
2  COc1cc(Nc2c(C#N)cnc3cc(OCCCN4CCN(C)CC4)c(OC)cc23)c(Cl)cc1Cl           -9.89
3  C[C@]12CC[C@@H]3c4ccc(O)cc4C[C@@H](CCCCCCCCC[S+]([O-])CCCC(F)(F)C(F)(F)F)[C@H]3[C@@H]1CC[C@@H]2O (stereo partly drawn)            6.07
4  Cc1cccc(CN2CCN(C(c3ccccc3)c3ccc(Cl)cc3)CC2)c1 (stereo not drawn) [Meclizine dihydrochloride]           -6.39
5  Nc1nc(NC2CC2)c2ncn([C@H]3C=C[C@@H](CO)C3)c2n1 [Abacavir hemisulfate]            2.71
6  C[C@H](Cc1cc2c(c(C(N)=O)c1)N(CCCO)CC2)NCCOc1ccccc1OCC(F)(F)F            15.7
7  COc1cc(N)c(Cl)cc1C(=O)NC1CCN(CCCOc2ccc(F)cc2)CC1OC (stereo not drawn) [Cisapride]            4.41
8  COc1cc2nc(N3CCN(C(=O)c4ccco4)CC3)nc(N)c2cc1OC [Prazosin hydrochloride]          0.0687

---

- Test system: Danio rerio larvae (5 dpf)
- PROCEDURE DETAILS: optomotor response to red moving lines, difference vs DMSO (percentage points (treated minus DMSO)); higher = more of the behaviour than the DMSO vehicle control
- EXPERIMENTAL CONDITIONS: 10 µM; exposure time: 3 h pre-incubation + 3 h imaging
Counter-ions that a name gives are not always drawn.
Binary classification by optomotor response to red moving lines, with 1 as an inclusive lower bound for 1.0; all other cases are 0.0.

> print(dat)
                                   compound  assigned.category
1   NC(=O)OCC(COC(N)=O)c1ccccc1 [Felbamate]                0.0
2  COc1ccc([C@@H]2Sc3ccccc3N(CCN(C)C)C(=O)[C@@H]2OC(C)=O)cc1 [Diltiazem hydrochloride]                0.0
3  CC#C[C@]1(O)CC[C@H]2[C@@H]3CCC4=CC(=O)CCC4=C3[C@@H](c3ccc(N(C)C)cc3)C[C@@]21C                1.0
4  OC(CNCC(O)C1CCc2cc(F)ccc2O1)C1CCc2cc(F)ccc2O1 (stereo not drawn) [Nebivolol hydrochloride]                0.0
5  COc1ccccc1OCCNCC(O)COc1cccc2[nH]c3ccccc3c12 (stereo not drawn)                1.0
6  CCc1c2c(nc3ccc(OC(=O)N4CCC(N5CCCCC5)CC4)cc13)-c1cc3c(c(=O)n1C2)COC(=O)[C@]3(O)CC                0.0
7  Cc1cccc(C)c1OCC(C)N (stereo not drawn) [Mexiletine hydrochloride]                1.0
8  CN(C)CC/C=C1/c2ccccc2COc2ccc(CC(=O)O)cc21 [Olopatadine hydrochloride]                1.0

---

Some molecules, each annotated with its measured optomotor response to red moving lines.
- Test system: Danio rerio larvae (5 dpf)
- PROCEDURE DETAILS: optomotor response to red moving lines, difference vs DMSO (percentage points (treated minus DMSO)); higher = more of the behaviour than the DMSO vehicle control
- EXPERIMENTAL CONDITIONS: 10 µM; exposure time: 3 h pre-incubation + 3 h imaging
Structures can show the parent of a compound that is named as a salt.
OBSERVABLE: optomotor response to red moving lines

> print(dat)
                                   molecule                              observable  value.observed
1  CC(C)COCC(CN(Cc1ccccc1)c1ccccc1)N1CCCC1 (stereo not drawn) [Bepridil hydrochloride]  optomotor response to red moving lines             3.6
2             CCc1nc(N)nc(N)c1-c1ccc(Cl)cc1  optomotor response to red moving lines            8.52
3  N#Cc1ccc2[nH]cc(CCCCN3CCN(c4ccc5oc(C(N)=O)cc5c4)CC3)c2c1 [Vilazodone hydrochloride]  optomotor response to red moving lines            12.8
4              CC(C)(C(=O)c1cccnc1)c1cccnc1  optomotor response to red moving lines            4.83
5  O=c1[nH]c(=O)n([C@H]2C[C@H](O)[C@@H](CO)O2)cc1C(F)(F)F  optomotor response to red moving lines            9.66
6  CC1(C)O[C@@H]2[C@@H](CO[C@@]3(COS(N)(=O)=O)OC(C)(C)O[C@@H]23)O1 [Topiramate]  optomotor response to red moving lines          -0.793
7  O=C(c1ccc(OCCN2CCCCC2)cc1)c1c(-c2ccc(O)cc2)sc2cc(O)ccc12 [Raloxifene hydrochloride]  optomotor response to red moving lines            3.63
8  OCc1cc(C(O)CNCCCCCCOCCCCc2ccccc2)ccc1O (stereo not drawn) [Salmeterol xinafoate]  optomotor response to red moving lines               5

---

- System: Danio rerio larvae (5 dpf)
- PROCEDURE DETAILS: optomotor response to fast red moving lines, difference vs DMSO (percentage points (treated minus DMSO)); higher = more of the behaviour than the DMSO vehicle control
- EXPERIMENTAL CONDITIONS: 10 µM; exposure time: 3 h pre-incubation + 3 h imaging
Structures can show the parent of a compound that is named as a salt.

COMPOUND	ASSAYED SYSTEM	optomotor response
CC(C)c1ccc2oc3nc(N)c(C(=O)O)cc3c(=O)c2c1	Danio rerio larvae (5 dpf)	-1.36
CNC(=O)c1cc(Oc2ccc(NC(=O)Nc3ccc(Cl)c(C(F)(F)F)c3)cc2)ccn1	Danio rerio larvae (5 dpf)	-21.1
COc1cc2nc(N3CCN(C(=O)c4ccco4)CC3)nc(N)c2cc1OC [Prazosin hydrochloride]	Danio rerio larvae (5 dpf)	3.73
CO[C@H]1/C=C/O[C@@]2(C)Oc3c(C)c(O)c4c(O)c(c5c(nc6cc(C)ccn65)c4c3C2=O)NC(=O)/C(C)=C\C=C\[C@H](C)[C@H](O)[C@@H](C)[C@@H](O)[C@@H](C)[C@H](OC(C)=O)[C@@H]1C	Danio rerio larvae (5 dpf)	-3.87
Cc1ccc(NC(=O)c2ccc(CN3CCN(C)CC3)cc2)cc1Nc1nccc(-c2cccnc2)n1 [Imatinib mesylate]	Danio rerio larvae (5 dpf)	1.11
CN1CCN(CCCN2c3ccccc3Sc3ccc(Cl)cc32)CC1 [Prochlorperazine dimaleate]	Danio rerio larvae (5 dpf)	2.92
CCC(C)(C)C(=O)O[C@H]1C[C@@H](C)C=C2C=C[C@H](C)[C@H](CC[C@@H]3C[C@@H](O)CC(=O)O3)[C@H]21	Danio rerio larvae (5 dpf)	-13.2
CCOc1ccccc1OCCN[C@H](C)Cc1ccc(OC)c(S(N)(=O)=O)c1 [Tamsulosin hydrochloride]	Danio rerio larvae (5 dpf)	-10.3
NS(=O)(=O)c1cc(C(=O)O)c(NCc2ccco2)cc1Cl [Furosemide]	Danio rerio larvae (5 dpf)	0.619
CCCCCCCCc1ccc(CCC(N)(CO)CO)cc1	Danio rerio larvae (5 dpf)	10.4
CCCc1nn(C)c2c(=O)[nH]c(-c3cc(S(=O)(=O)N4CCN(C)CC4)ccc3OCC)nc12 [Sildenafil citrate]	Danio rerio larvae (5 dpf)	-12.3
C[C@@H]1C[C@H]2[C@@H]3CCC4=CC(=O)C=C[C@]4(C)[C@@]3(F)[C@@H](O)C[C@]2(C)[C@@]1(O)C(=O)CO	Danio rerio larvae (5 dpf)	0.576
Nc1ccn([C@@H]2O[C@H](CO)[C@@H](O)C2(F)F)c(=O)n1 [Gemcitabine hydrochloride]	Danio rerio larvae (5 dpf)	5.64
NC(=O)OCC(COC(N)=O)c1ccccc1 [Felbamate]	Danio rerio larvae (5 dpf)	8.45
CCOC(=O)C1=C(COCCN)NC(C)=C(C(=O)OC)C1c1ccccc1Cl (configuration not stated) [Amlodipine besylate]	Danio rerio larvae (5 dpf)	7.5
CC(C)(C#N)c1cc(Cn2cncn2)cc(C(C)(C)C#N)c1	Danio rerio larvae (5 dpf)	-1.59
COc1ccc([C@@H]2Sc3ccccc3N(CCN(C)C)C(=O)[C@@H]2OC(C)=O)cc1 [Diltiazem hydrochloride]	Danio rerio larvae (5 dpf)	-0.971
CN(C)C(=N)NC(=N)N [Metformin hydrochloride]	Danio rerio larvae (5 dpf)	10.2
O=C(O[C@@H]1C[C@@H]2C[C@H]3C[C@H](C1)N2CC3=O)c1c[nH]c2ccccc12 [Dolasetron mesylate]	Danio rerio larvae (5 dpf)	-6.96
O=C(Nc1c(Cl)cncc1Cl)c1ccc(OC(F)F)c(OCC2CC2)c1	Danio rerio larvae (5 dpf)	-10.8
Clc1ccccc1C(c1ccccc1)(c1ccccc1)n1ccnc1	Danio rerio larvae (5 dpf)	17.9
Cc1ccc(N(CC2=NCCN2)c2cccc(O)c2)cc1 [Phentolamine Mesylate]	Danio rerio larvae (5 dpf)	7.53
OC(c1cc(C(F)(F)F)nc2c(C(F)(F)F)cccc12)C1CCCCN1 (configuration not stated) [Mefloquine hydrochloride]	Danio rerio larvae (5 dpf)	-3.95
COc1cc2nccc(Oc3ccc(NC(=O)C4(C(=O)Nc5ccc(F)cc5)CC4)cc3)c2cc1OC	Danio rerio larvae (5 dpf)	-16.9
CC(C)CN(C[C@@H](O)[C@H](Cc1ccccc1)NC(=O)O[C@H]1CO[C@H]2OCC[C@H]21)S(=O)(=O)c1ccc(N)cc1	Danio rerio larvae (5 dpf)	1.68
N#Cc1ccc2[nH]cc(CCCCN3CCN(c4ccc5oc(C(N)=O)cc5c4)CC3)c2c1 [Vilazodone hydrochloride]	Danio rerio larvae (5 dpf)	-38.2
CC(=O)Nc1ccc(O)cc1	Danio rerio larvae (5 dpf)	-11.2
CCCCC(=O)N(Cc1ccc(-c2ccccc2-c2nnn[nH]2)cc1)[C@H](C(=O)O)C(C)C	Danio rerio larvae (5 dpf)	-0.58
NC(=O)N1c2ccccc2C=Cc2ccccc21 [Carbamazepine]	Danio rerio larvae (5 dpf)	-9.08
Clc1ccc(COC(Cn2ccnc2)c2ccc(Cl)cc2Cl)c(Cl)c1 (configuration not stated) [Miconazole nitrate]	Danio rerio larvae (5 dpf)	-18.6
O=C(c1ccc(OCCN2CCCCC2)cc1)c1c(-c2ccc(O)cc2)sc2cc(O)ccc12 [Raloxifene hydrochloride]	Danio rerio larvae (5 dpf)	-14.5
C[C@@H](O[C@H]1OCCN(Cc2n[nH]c(=O)[nH]2)[C@H]1c1ccc(F)cc1)c1cc(C(F)(F)F)cc(C(F)(F)F)c1 [Aprepitant]	Danio rerio larvae (5 dpf)	7.32

Cited source for all entries: the supplement of paper PMC9023506
